B1: glmS ribozyme (parent)
chain: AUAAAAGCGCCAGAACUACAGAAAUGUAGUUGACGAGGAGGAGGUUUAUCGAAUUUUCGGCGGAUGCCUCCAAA

# Variants of: B1
# Test Description: self-cleavage kobs at 10000 uM GlcN6P; higher = faster cleavage; RNA array
# Condition Notes: with glucosamine-6-phosphate
Variants at the floor of the assay were thinned out.
// label = yes if self-cleavage kobs at 10000 uM GlcN6P is not less than 0.0002 s⁻¹, otherwise no

{"Alteration": "G40A U65G C71U", "Answer Label": "yes"}
{"Alteration": "C8A C50G U54G C68U", "Answer Label": "no"}
{"Alteration": "C8A U49A G51A", "Answer Label": "no"}
{"Alteration": "G40C U69C", "Answer Label": "no"}
{"Alteration": "A6C C58G", "Answer Label": "no"}
{"Alteration": "C11G A36C G38U C50A U65G", "Answer Label": "no"}

QUERY: # bool: self-cleavage kobs at 10000 uM GlcN6P of C8G G41A >= 0.0002 s⁻¹
RESULT: no

QUERY: Next record, please: U30C G35U G41A U47A U57A C61G G63C C70A
RESULT: no

QUERY: Next record, please: C16A G41A
RESULT: no

QUERY: Next record, please: U54C C70G
RESULT: yes
